# target-entity: HDAC3 (Homo sapiens)
# Construct: purchased Reaction Biology Corporation (assay run by the CRO)
# Sequence (O15379 whole entry): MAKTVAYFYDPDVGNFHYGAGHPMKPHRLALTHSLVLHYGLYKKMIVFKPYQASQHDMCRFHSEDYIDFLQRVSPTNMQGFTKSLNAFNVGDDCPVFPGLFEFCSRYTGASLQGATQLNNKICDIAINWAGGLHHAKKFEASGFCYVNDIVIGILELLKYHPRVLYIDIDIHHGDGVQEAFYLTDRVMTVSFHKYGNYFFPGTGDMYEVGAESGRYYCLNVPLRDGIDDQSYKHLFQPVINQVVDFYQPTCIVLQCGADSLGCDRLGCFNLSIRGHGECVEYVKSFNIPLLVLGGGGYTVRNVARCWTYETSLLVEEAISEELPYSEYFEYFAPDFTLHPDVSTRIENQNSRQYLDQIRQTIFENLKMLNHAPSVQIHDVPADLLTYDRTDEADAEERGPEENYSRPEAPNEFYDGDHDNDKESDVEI
# Sequence (Q9Y618 395-489 partner limits assumed): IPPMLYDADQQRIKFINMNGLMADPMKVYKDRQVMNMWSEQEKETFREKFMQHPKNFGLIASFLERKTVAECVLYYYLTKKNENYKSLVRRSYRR
# method-notes: HDAC3 inhibition, full IC50 measurement (Reaction Biology; fluorogenic p53 peptide RHKK(Ac)AMC)
# Assay type: biochemical
# run-parameters: Conc. 1.52E-09 M, t2
Peptide text beside a SMILES is read from it.
endpoint-label: HDAC3 activity raw data (signal)
Note: the reply should be a number with no unit written.

{"molecule": "N=C(N)NCCC[C@@H]1NC(=O)[C@@H](CCCNC(=N)N)NC(=O)[C@H]2CCCN2C(=O)[C@@H](Cc2c[nH]cn2)NC(=O)[C@H](Cc2ccc(O)cc2)NC(=O)[C@H](CCCCCS)NC(=O)[C@H](CCc2ccccc2)NC(=O)[C@@H](CO)NC(=O)[C@H](CC(=O)O)NC1=O [des3.3.1, SHA-Tyr-dHis-dPro-dArg-Arg-Asp-dSer-C27] (HELM PEPTIDE1{[O=C([C@H](CCCCCS)N[*:1])[*:2]].Y.[dH].[dP].[dR].R.D.[dS].[O=C([C@H](CCc1ccccc1)N[*:1])[*:2]]}$PEPTIDE1,PEPTIDE1,1:R1-9:R2$$$V2.0)", "HDAC3 activity raw data (signal)": 186935}

Kindly review the next molecule as well.
(Q) Recall the recorded HDAC3 activity raw data (signal) for NCCCC[C@H]1NC(=O)[C@H](CCC(N)=O)NC(=O)[C@H](CCC(=O)O)NC(=O)[C@@H]2CCCN2C(=O)[C@H](CC(N)=O)NC(=O)[C@H](CCCCCS)NC(=O)CNC(=O)[C@H](Cc2c[nH]c3ccccc23)NC1=O [des1.1.1, SHA-Asn-Pro-Glu-Gln-dLys-Trp-Gly] (HELM PEPTIDE1{E.Q.[dK].W.G.[O=C([C@H](CCCCCS)N[*:1])[*:2]].N.P}$PEPTIDE1,PEPTIDE1,1:R1-8:R2$$$V2.0) with HDAC3 (Homo sapiens) and state it.
(A) 1416606
